- System: Proteus morgani (IFO 3848)
- Method: MIC, agar dilution, Proteus morgani
- Assay type: cell-based
- Recorded Conditions: Morganella morganii, IFO3848, 20 h, read-out: Minimum Inhibitory Concentration (MIC)
Answer each item with its documented MIC.
One number for each entry, in µg/mL.

Example cases with answers are listed next.
{"Compound": "CC(C)C[C@H](C(=O)N[C@@H](C(=O)N[C@@H]1C(=O)N2[C@@H]1SC(C)(C)[C@@H]2C(=O)O)c1ccccc1)N(C)C(=O)OCc1ccccc1", "MIC, µg/mL": 100}
{"Compound": "CN[C@H](C)C(=O)N[C@@H](C(=O)N[C@@H]1C(=O)N2[C@@H]1SC(C)(C)[C@@H]2C(=O)O)c1ccc(O)cc1", "MIC, µg/mL": 3.1}
{"Compound": "Cc1ccc(S(=O)(=O)N(C)C(C)C(=O)N[C@@H](C(=O)N[C@@H]2C(=O)N3[C@@H]2SC(C)(C)[C@@H]3C(=O)O)c2ccccc2)cc1 (some centres unmarked)", "MIC, µg/mL": 12.5}
{"Compound": "CC1(C)S[C@@H]2[C@H](NC(=O)[C@H](NC(=O)[C@H]3Cc4ccccc4CN3)c3ccccc3)C(=O)N2[C@H]1C(=O)O", "MIC, µg/mL": 25}
{"Compound": "CC1(C)S[C@@H]2[C@H](NC(=O)[C@H](NC(=O)[C@@H]3CCCN3)c3ccc(O)cc3)C(=O)N2[C@H]1C(=O)O", "MIC, µg/mL": 9}
{"Compound": "Cc1ccc(S(=O)(=O)N(C)CC(=O)N[C@@H](C(=O)N[C@@H]2C(=O)N3[C@@H]2SC(C)(C)[C@@H]3C(=O)O)c2ccccc2)cc1", "MIC, µg/mL": 12.5}
{"Compound": "CC1(C)S[C@@H]2[C@H](NC(=O)[C@H](NC(=O)[C@H]3CCCN3)c3ccc(O)cc3)C(=O)N2[C@H]1C(=O)O [Compound 3, monohydrate]", "MIC, µg/mL": 3.1}
{"Compound": "CC1(C)S[C@@H]2[C@H](NC(=O)[C@H](NC(=O)[C@H]3CCN3)c3ccc(O)cc3)C(=O)N2[C@H]1C(=O)O", "MIC, µg/mL": 3.1}
{"Compound": "Cc1ccc(S(=O)(=O)N(C)[C@H](C)C(=O)N[C@@H](C(=O)N[C@@H]2C(=O)N3[C@@H]2SC(C)(C)[C@@H]3C(=O)O)c2ccccc2)cc1", "MIC, µg/mL": 9}
{"Compound": "CC1(C)S[C@@H]2[C@H](NC(=O)[C@H](NC(=O)[C@H]3CCCN3)c3ccccc3)C(=O)N2[C@H]1C(=O)O", "MIC, µg/mL": 3.1}

Parameter requested: MIC. Apply to each item below.
1. CC1(C)S[C@@H]2[C@H](NC(=O)[C@H](NC(=O)[C@H]3CCN3)c3ccccc3)C(=O)N2[C@H]1C(=O)O
2. CN[C@H](C)C(=O)N[C@@H](C(=O)N[C@@H]1C(=O)N2[C@@H]1SC(C)(C)[C@@H]2C(=O)O)c1ccccc1
3. CN(C(=O)OCc1ccccc1)[C@@H](C(=O)N[C@@H](C(=O)N[C@@H]1C(=O)N2[C@@H]1SC(C)(C)[C@@H]2C(=O)O)c1ccccc1)c1ccccc1

[12.5, 9.3, 25]
